- Study system: IRAK-4 (Homo sapiens, UniProt Q9NWZ3)
- Sequence (Q9NWZ3 1-460): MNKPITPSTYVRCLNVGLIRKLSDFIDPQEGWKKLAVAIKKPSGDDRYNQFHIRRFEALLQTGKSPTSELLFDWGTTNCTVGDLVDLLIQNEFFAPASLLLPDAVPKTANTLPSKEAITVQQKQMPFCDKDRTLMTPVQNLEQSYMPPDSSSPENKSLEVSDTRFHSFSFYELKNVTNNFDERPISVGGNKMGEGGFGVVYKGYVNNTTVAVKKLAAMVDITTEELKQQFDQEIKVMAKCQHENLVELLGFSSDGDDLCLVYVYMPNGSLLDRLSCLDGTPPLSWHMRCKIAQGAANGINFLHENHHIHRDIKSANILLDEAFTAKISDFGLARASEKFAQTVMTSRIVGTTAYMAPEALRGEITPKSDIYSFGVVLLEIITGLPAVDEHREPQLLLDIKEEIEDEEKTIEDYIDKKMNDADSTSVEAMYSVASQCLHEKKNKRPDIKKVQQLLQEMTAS
- Measurement protocol: IRAK-4 ELISA, PBMC degradation
- Assay type: cell-based
- Set-up: endogenous in cells; host or cells: PBMC
- Assay context: treated overnight
- Method: Reagents: Human IRAK-4 Matched Antibody Pair Kit (Abcam ab218182) and ELISA Accessory Pack (Abcam ab210905). Cell Treatment and Lysis: 1. OCI-Ly10: 200,000 cells are seeded at 1×10^6/ml in 96-well U-bottom plates 200 ul per well, treated with compound the same day. Incubate overnight. 2. PBMC: 800,000 cells are seeded at 2×10^6/ml in 96-well U-bottom deep-well plates, 400 ul per well, treated with compound the same day. […] Cell lysate is collected and analyzed by ELISA for IRAK-4 levels.
Listing of recorded Dmax by entry.

# count of solved cases: 10
CC(C)Oc1cc2c(cc1NC(=O)c1cnn3cccnc13)CN(C1CCN(CC3CCC4(CC3)CN(c3ccc5c(c3)C(=O)N(C3CCC(=O)NC3=O)C5=O)C4)CC1)C2=O (stereo not shown) [Example 81] ... ≥ 90%
CN(C1CN(c2ccc3c(c2F)CN(C2CCC(=O)NC2=O)C3=O)C1)[C@H]1CC[C@H](n2cc3cc(NC(=O)c4cnn5cccnc45)c(OCC(F)F)cc3n2)CC1 (stereo partly shown) [Example 362] ... ≥ 90%
O=C1CCC(N2Cc3cc(N4CC(CN5CCC(n6cc7cc(NC(=O)c8cnn9cccnc89)c(C8CC8)cc7n6)CC5)C4)ccc3C2=O)C(=O)N1 (stereo not shown) [Example 136] ... ≥ 90%
O=C1CCC(N2Cc3c(ccc(N4CCC(CN5CCC(N6Cc7cc(NC(=O)c8cnn9cccnc89)c(N8CCN(C9CC(F)(F)C9)CC8)cc7C6=O)CC5)CC4)c3F)C2=O)C(=O)N1 (stereo not shown) [Example 55] ... ≥ 90%
CC(C)Oc1cc2c(cc1NC(=O)c1cnn3cccnc13)CN(C1CCN(CC3(F)CN(c4cc(F)c5c(c4)C(=O)N(C4CCC(=O)NC4=O)C5)C3)CC1)C2=O (stereo not shown) [Example 108] ... ≥ 90%
O=C1CCC(N2Cc3ccc(N4CCC(CN5CCC(N6Cc7cc(NC(=O)c8cnn9cccnc89)c(OCC(F)F)cc7C6=O)CC5)CC4)cc3C2=O)C(=O)N1 (stereo not shown) [Example 45] ... ≥ 90%
COc1cc(N2CCC(CN3CCC(N4Cc5cc(NC(=O)c6cnn7cccnc67)c(OC(C)C)cc5C4=O)CC3)CC2)cc2c1C(=O)N(C1CCC(=O)NC1=O)C2=O (stereo not shown) [Example 12] ... ≥ 90%
COc1cc(N2CC(F)(CN3CCC(n4cc5cc(NC(=O)c6cnn7cccnc67)c(OCC6CC6)cc5n4)CC3)C2)cc2c1C(=O)N(C1CCC(=O)NC1=O)C2 (stereo not shown) [Example 242] ... 80 to 90%
O=C1CCC(N2Cc3c(ccc(N4CCC(CN5CCC(N6Cc7cc(NC(=O)c8cnn9cccnc89)c(N8CCN(CC(F)F)CC8)cc7C6=O)CC5)CC4)c3F)C2=O)C(=O)N1 (stereo not shown) [Example 51] ... ≥ 90%
CC(C)Oc1cc2c(cc1NC(=O)c1cnn3cccnc13)CN(C1CCN(CC3CN(c4ccc(C(=O)NC5CCC(=O)NC5=O)c(F)c4)C3)CC1)C2=O (stereo not shown) [Example 292] ... ≥ 90%

Alright, here's another compound for you.
Item: O=C1CCC(N2C(=O)c3ccc(N4CC(CN5CCC(N6Cc7cc(NC(=O)c8cnn9cccnc89)c(N8CCOCC8)cc7C6=O)CC5)C4)cc3C2=O)C(=O)N1 (stereo not shown) [Example 96] | Dmax: ≥ 90%

###

Listing of recorded DC50 by entry.
- Study system: IRAK-4 (Homo sapiens, UniProt Q9NWZ3)
- Measurement protocol: IRAK-4 ELISA, OCI-Ly10 degradation
- Type: cell-based
- Parameters: endogenous in cells
- Assay context: OCI-Ly10 cells, treated overnight

# count of solved cases: 5
COc1cc2nn(C3CCN(CC#Cc4ccc5c(c4)C(=O)N(C4CCC(=O)NC4=O)C5=O)CC3)cc2cc1NC(=O)c1cnn2cccnc12 (stereo not drawn) ... 50 to 100 nM
O=C1CCC(N2C(=O)c3ccc(CN4CCC(n5cc6cc(NC(=O)c7cnn8cccnc78)c(OCC7CC7)cc6n5)CC4)cc3C2=O)C(=O)N1 (stereo not drawn) ... ≥ 100 nM
O=C1CCC(N2Cc3cc(N4CC(CN5CCC(N6Cc7cc(NC(=O)c8cnn9cccnc89)c(N8CCOCC8)cc7C6=O)CC5)C4)ccc3C2=O)C(=O)N1 (stereo not drawn) ... ≥ 100 nM
O=C1CCC(N2C(=O)c3ccc(CCN4CCC(n5cc6cc(NC(=O)c7cnn8cccnc78)c(OCC7CC7)cc6n5)CC4)cc3C2=O)C(=O)N1 (stereo not drawn) ... 10 to 50 nM
O=C1CCC(N2Cc3cc(N4CC(CN5CCC(N6Cc7cc(NC(=O)c8cnn9cccnc89)c(OCC8CC8)cc7C6=O)CC5)C4)ccc3C2=O)C(=O)N1 (stereo not drawn) ... < 10 nM

Alright, here's another compound for you.
Item: CC(C)Oc1cc2c(cc1NC(=O)c1cnn3cccnc13)CN(C1CCN(C(C)(C)C3CCN(c4ccc5c(c4)C(=O)N(C4CCC(=O)NC4=O)C5=O)CC3)CC1)C2=O (stereo not drawn) | DC50: < 10 nM

###

- Study system: UniProt:Q9NWZ3
- Sequence (Q9NWZ3 1-460): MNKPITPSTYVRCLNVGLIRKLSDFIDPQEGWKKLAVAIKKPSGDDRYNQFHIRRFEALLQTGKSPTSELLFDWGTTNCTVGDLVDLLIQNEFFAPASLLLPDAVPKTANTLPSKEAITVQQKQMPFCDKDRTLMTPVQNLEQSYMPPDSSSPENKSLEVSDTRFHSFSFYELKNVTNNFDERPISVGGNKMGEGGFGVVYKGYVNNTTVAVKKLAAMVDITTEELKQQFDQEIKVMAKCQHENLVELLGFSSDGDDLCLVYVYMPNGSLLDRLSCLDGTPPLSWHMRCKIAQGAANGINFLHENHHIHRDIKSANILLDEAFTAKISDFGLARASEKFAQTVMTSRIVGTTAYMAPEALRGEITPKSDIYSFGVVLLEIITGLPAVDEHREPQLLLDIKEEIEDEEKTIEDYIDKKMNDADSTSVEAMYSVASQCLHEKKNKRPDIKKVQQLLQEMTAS
- Measurement protocol: IRAK-4 ELISA, PBMC degradation
- Assay type: cell-based
- Set-up: endogenous in cells; host or cells: PBMC
- Assay context: treated overnight
Property label: Dmax

# count of solved cases: 4
CC(C)Oc1cc2c(cc1NC(=O)c1cnn3cccnc13)CN([C@H]1CC[C@H](N(C)C3CN(c4ccc5c(c4)C(=O)N(C4CCC(=O)NC4=O)C5=O)C3)CC1)C2=O (some centres unmarked) [Example 313] ... ≥ 90%
O=C1CCC(N2C(=O)c3ccc(N4CC(F)(CN5CCC(n6cc7cc(NC(=O)c8cnn9ccc(N%10CCOCC%10)nc89)c(C(F)F)cc7n6)CC5)C4)cc3C2=O)C(=O)N1 (centres unmarked) [Example 409] ... ≥ 90%
O=C1CCC(NC(=O)c2ccc(N3CCC(CN4CCC(n5cc6cc(NC(=O)c7cnn8cccnc78)c(OCC7CC7)cc6n5)CC4)CC3)cc2F)C(=O)N1 (centres unmarked) [Example 288] ... ≥ 90%
CCN(C1CN(c2ccc(C(=O)NC3CCC(=O)NC3=O)c(F)c2)C1)[C@H]1CC[C@H](n2cc3cc(NC(=O)c4cnn5cccnc45)c(OC(C)C)cc3n2)CC1 (some centres unmarked) [Example 322] ... ≥ 90%

Item: CN(C1CCN(c2ccc3c(c2)C(=O)N(C2CCC(=O)NC2=O)C3=O)CC1)[C@H]1CC[C@H](N2Cc3cc(NC(=O)c4cnn5cccnc45)c(N4CCN(CC(F)F)CC4)cc3C2=O)CC1 (some centres unmarked) [Example 371] | Dmax: ≥ 90%

Item: COc1cc(N2CCC(CN3CCC(n4cc5cc(NC(=O)c6cnn7cccnc67)c(OCC6CC6)cc5n4)CC3)CC2)cc2c1C(=O)N(C1CCC(=O)NC1=O)C2=O (centres unmarked) [Example 133] | Dmax: ≥ 90%

Item: O=C1CCC(N2Cc3c(ccc(N4CCC(CN5CCC(n6cc7cc(NC(=O)c8cnn9cccnc89)c(OCC8CC8)cc7n6)CC5)CC4)c3F)C2=O)C(=O)N1 (centres unmarked) [Example 153] | Dmax: 80 to 90%

Item: O=C1CCC(N2C(=O)c3ccc(N4CC(N5CCC(N6Cc7cc(NC(=O)c8cnn9cccnc89)c(N8CCC(N9CCC9)CC8)cc7C6=O)CC5)C4)cc3C2=O)C(=O)N1 (centres unmarked) [Example 99] | Dmax: 80 to 90%

Item: COc1cc2nn(C3CCN(CCc4ccc5c(c4)CN(C4CCC(=O)NC4=O)C5=O)CC3)cc2cc1NC(=O)c1cnn2cccnc12 (centres unmarked) [Example 143] | Dmax: ≥ 90%

Item: O=C1CCC(N2C(=O)c3ccc(N4CC(F)(CN5CCC(N6Cc7cc(NC(=O)c8cnn9cccnc89)c(OC8CC8)cc7C6=O)CC5)C4)cc3C2=O)C(=O)N1 (centres unmarked) [Example 85] | Dmax: 80 to 90%

Item: O=C1CCC(N2Cc3c(ccc(N4CC(F)(CN5CCC(n6cc7cc(NC(=O)c8cnn9cccnc89)c(OCC8CC8)cc7n6)CC5)C4)c3F)C2=O)C(=O)N1 (centres unmarked) [Example 250] | Dmax: 80 to 90%

Values from patent US20230099344A1
